Just for reference, patent US20240150440A1 is where these values come from.

# System name: SARS-CoV-2 spike protein on pseudotyped lentivirus (Wuhan Reference Pseudovirus) (SARS-CoV-2, UniProt P0DTC2 14-1273)
# Assay protocol: cell-based or functional assay
Attribute measured: infectivity % under 10 ug/mL VHH treatment (%)
Answer with a number only, understood to be in %.

| Binder | Unit info | Endpoint result |
| --- | --- | --- |
| PP1152 MBP-5HVZ-PAPA-R5d-B6-H6 (VHH, Form: Dimer) VHH: QVQLVESGGGLVQPGGSLRLSCAASGRILAANIVHWYRQAPGKEREGVAGITSGGGSYYADSVKGRFTISRDNAKNTVYLQMNSLKPEDTAVYYCNALGLGQSSLYRSADPYDSWGQGTQVTVSS | % | 4.64 |
| PP1106 MBP-5HVZ-PAPA-RN-21-H6 (VHH, Form: Dimer) VHH: QVQLVESGGGLVQPGGSLRLSCAASGLQTSDNAMHWFRQAPGKNRELVAGLTSGTSRNYGDSVKGRFTISRDNAKNTVYLQMNSLKPEDTAVYYCAAFPDVGDASSIGFVYWGQGTQVTVSS | % | 76.6 |
| PP1140 MBP-4B0F-PAPA-R5d-B6-H6 (VHH, Form: Heptamer) VHH: QVQLVESGGGLVQPGGSLRLSCAASGRILAANIVHWYRQAPGKEREGVAGITSGGGSYYADSVKGRFTISRDNAKNTVYLQMNSLKPEDTAVYYCNALGLGQSSLYRSADPYDSWGQGTQVTVSS | % | 2.47 |

Attention now shifts to the item below.
Inquiry: Return infectivity % under 10 ug/mL VHH treatment for the following binder: PP837 MBP-R5D-B2-H6 (VHH, Form: Monomer) VHH: QVQLVESGGGLVQPGGSLRLSCAASGSIWSIAFMSWYRQAPGKGREWVAAITTGNDEAYADSVKGRFTISRDNAKNTVYLQMNSLKPEDTAVYYCAANTYERTPDGRTFSYWGQGTQVTVSS
Reply text: 77.6
